Below: a set of entries, each annotated with reported cell viability.
Tested on: Caco-2
Assay: cell viability relative to DMSO; higher = less toxic
Details: 72 h; 1000 nM
Please respond with the number in % and leave the unit unwritten.

Take a look at these entries with their results.
Quick check: cell viability of C=C1C(=O)O[C@@H]2[C@H]3O[C@]3(C)CC/C=C(\C)CC[C@@H]12 [parthenolide-(alternate-stereo)] ? 98.7

Quick check: cell viability of O=C1c2ccccc2S(=O)(=O)N1CCCCN1CCN(c2ncccn2)CC1 [ipsapirone] ? 98.2

Quick check: cell viability of Cc1c(-c2ccccc2)oc2c(C(=O)OCCN3CCCCC3)cccc2c1=O [flavoxate] ? 97.1

Quick check: cell viability of Cc1ccc(C[N+](C)(C)C)o1 [5-methylfurmethiodide] ? 96.3

Quick check: cell viability of CS(=O)(=O)Nc1ccc2oc3c(OC(F)F)ccc(C(=O)Nc4c(Cl)cncc4Cl)c3c2c1 [oglemilast] ? 103

Quick check: cell viability of Cc1cncc(CN2CCC(=C3c4ccc(Cl)cc4CCc4cccnc43)CC2)c1 [rupatadine] ? 90.2

Others:
Quick check: cell viability of CCCC(=O)O [sodium-butyrate] ? 99.9

Quick check: cell viability of COc1ccccc1C1(O)CCN(CCCn2c3ccccc3c3ccccc32)CC1 [NNC-05-2090] ? 83.1

Quick check: cell viability of CCCCC/C=C\C/C=C\C/C=C\C/C=C\CCCC(=O)Nc1ccc(O)cc1 [AM-404] ? 100

Quick check: cell viability of CCCC1(CCC)CCC2(CCN(CCCN(CC)CC)C2)CC1 [atiprimod] ? 94.9

----------
System: Caco-2
Assay: cell viability relative to DMSO; higher = less toxic
Conditions: 72 h; 10 nM
measured-metric: cell viability (%)
Please respond with the number in % and leave the unit unwritten.

Quick check: cell viability of CC1C(=O)OC2C(O)C34C5CC(C(C)(C)C)C36C(OC(=O)C6O)OC4(C(=O)O5)C12O (centres undefined) [ginkgolide-B] ? 93.4

Quick check: cell viability of CC[N+](C)(CC)CCOC(=O)C(O)(c1ccccc1)C1CCCCC1 (centres undefined) ? 98.4

Quick check: cell viability of CCCCCCCCCCCCCC(=O)OC(C)C [isopropyl-myristate] ? 97

Quick check: cell viability of "N[C@@H](C(=O)N[C@@H]1C(=O)N2C(C(=O)O)=C(Cl)CC[C@H]12)c1ccccc1" ? 104

Others:
Quick check: cell viability of "O=c1cc(-c2ccc(O)c(O)c2)oc2cc(O)cc(O)c12" ? 98.1

Quick check: cell viability of CC1C=CC=CCCC=CC=CC=CC=CC(OC2OC(C)C(O)C(N)C2O)CC2OC(O)(CC(O)C(O)CCC(O)CC(O)CC(O)CC(=O)OC(C)C(C)C1O)CC(O)C2C(=O)O (centres undefined) ? 98.5

Quick check: cell viability of "COc1cc2nc(C3CC3)nc(N3CCN(c4ccccc4OC)CC3)c2cc1OC" ? 91.5

Quick check: cell viability of "O=C(Nc1ccccc1)[C@]12C[C@H]1/C(=N\O)c1ccccc1O2" ? 99

Quick check: cell viability of "NC(N)=O" ? 93.4

----------
Tested on: HepG2
Test: cell viability relative to DMSO; higher = less toxic
Settings: 72 h; 1000 nM
measured-metric: cell viability

Quick check: cell viability of CO[C@H](C(=O)[C@@H](O)[C@@H](C)O)[C@@H]1Cc2cc3cc(O[C@H]4C[C@@H](O[C@H]5C[C@@H](O)[C@H](O)[C@@H](C)O5)[C@@H](O)[C@@H](C)O4)c(C)c(O)c3c(O)c2C(=O)[C@H]1O[C@H]1C[C@@H](O[C@H]2C[C@@H](O[C@H]3C[C@](C)(O)[C@H](O)[C@@H](C)O3)[C@H](O)[C@@H](C)O2)[C@H](O)[C@@H](C)O1 [plicamycin] ? 4.4%

Quick check: cell viability of CC[N+](C)(CC)CCOC(=O)C(O)(c1ccccc1)C1CCCCC1 (configuration not stated) [oxyphenonium] ? 86.2%

Quick check: cell viability of "CC(=O)N(O)[C@@H]1c2cc(C#N)ccc2OC(C)(C)[C@H]1O" ? 107%

Quick check: cell viability of CCn1ccnc1CC1COc2ccccc2O1 (configuration not stated) [imiloxan] ? 93.2%

Quick check: cell viability of CCCC[C@H]1C(=O)N(c2ccccc2)N(c2ccc(O)cc2)C1=O [oxyphenbutazone] ? 94.2%

Quick check: cell viability of CC1C=CC=CCCC=CC=CC=CC=CC(OC2OC(C)C(O)C(N)C2O)CC2OC(O)(CC(O)C(O)CCC(O)CC(O)CC(O)CC(=O)OC(C)C(C)C1O)CC(O)C2C(=O)O (configuration not stated) [nystatin] ? 96.8%

Quick check: cell viability of COc1cc2nc(C3CC3)nc(N3CCN(c4ccccc4OC)CC3)c2cc1OC [ML314] ? 91.6%

Quick check: cell viability of C[C@@H]1C[C@H]2[C@@H]3C[C@H](F)C4=CC(=O)C=C[C@]4(C)[C@@]3(F)[C@@H](O)C[C@]2(C)[C@@]1(O)C(=O)COC(=O)C(C)(C)C [flumethasone-pivalate] ? 103%

Others:
Quick check: cell viability of C[C@H](Nc1ncnc2nc[nH]c12)c1cc2cccc(Cl)c2c(=O)n1-c1ccccc1 [duvelisib] ? 89.5%

Quick check: cell viability of OCc1ccc(-c2nn(Cc3ccccc3)c3ccccc23)o1 [YC-1] ? 73.5%

Quick check: cell viability of "CCCC(CCC)C(=O)Nc1ccn([C@@H]2O[C@H](CO)[C@@H](O)C2(F)F)c(=O)n1" ? 39.4%

Quick check: cell viability of c1ccc([C@@H]2C[C@H]2NC2CCNCC2)cc1 [GSK-LSD-1] ? 98.8%

Quick check: cell viability of C=C1/C(=C\C=C2/CCC[C@]3(C)[C@@H]([C@H](C)/C=C/[C@@H](O)C4CC4)CC[C@@H]23)C[C@@H](O)C[C@@H]1O [calcipotriol] ? 99.6%

Quick check: cell viability of O=C(c1ccc(/C=C/c2n[nH]c3ccccc23)cc1)N1CCNCC1 [KW-2449] ? 94.6%

Quick check: cell viability of Nc1nc(N)nc(NC2CC2)n1 [cyromazine] ? 95%

Quick check: cell viability of CC(C)[C@@]1(NC(=O)[C@@H]2C[C@@H]3c4cccc5[nH]cc(c45)C[C@H]3N(C)C2)O[C@@]2(O)[C@@H]3CCCN3C(=O)[C@H](Cc3ccccc3)N2C1=O [dihydroergocristine] ? 100%
